Data origin: PubChem BioAssay (Tox21)

# protocol summary: p53 small molecule agonists, cell-based qHTS assay with rat liver microsomes: qHTS cell viability counter screen (AID 1963580); further: nearly all actives have a fitted effect of over 45% in size
# experimental context: p53RE-bla HCT-116 + rat microsomes, ATP viability, 16 h; series mostly up to 66 µM
Records with an inconclusive call do not appear. Active and inactive are the calls of the source. The call rests on the fitted dose curve.
Outcome codes: active, inactive

compound	group label
S=C([S-])NCCNC(=S)[S-].[Mn+2]	inactive
CC(C)(CO)[N+](=O)[O-]	inactive
NCCCOCCOCCOCCCN	inactive
C=C(C)C(=O)OCCO	inactive
O=C(Cl)c1cccc([N+](=O)[O-])c1	inactive
CCCCCCNC(=O)n1cc(F)c(=O)[nH]c1=O	inactive
C[C@H]1[C@@H](c2ccccc2)NC(=O)N1C	inactive
CN(C)[C@@H]1C(=O)C(C(N)=O)=C(O)[C@@]2(O)C(=O)C3=C(O)c4c(O)cccc4C[C@H]3C[C@@H]12	inactive
Cc1onc(-c2ccccc2)c1-c1ccc(S(N)(=O)=O)cc1	inactive
CC1=CC(=O)CCC1	inactive
CC[N+](CC)(CC)CCOc1ccc(/C=C/c2ccccc2)cc1	inactive
Oc1ccc(Cc2ccccc2)cc1	inactive
NCCCN1CCOCC1	inactive
CCCCCCCCNC	inactive
COc1cc(C(=O)NC2CCN(C)CC2)ccc1Nc1ncc2c(n1)N(C1CCCC1)CC(F)(F)C(=O)N2C	active
CC(C)C1=CC2=CC[C@@H]3[C@](C)(CCC[C@@]3(C)C(=O)O)[C@H]2CC1	inactive
BrCCOc1ccccc1	inactive
COC(=O)[C@@H](N)Cc1ccc(O)c(O)c1	inactive
CC(=O)Nc1ccc(S(=O)(=O)Nc2ccc([N+](=O)[O-])cc2)cc1	inactive
N=C(N)N	inactive
O=C1NC2CCCCN2C12CCN(CCCN1c3ccccc3CCc3ccc(Cl)cc31)CC2 (configuration not stated)	inactive
O=C(Nc1ccc(Cl)c(Cl)c1)c1cc(Cl)cc(Cl)c1O	active
CCC(C)(CCC(C)C)C(=O)O (configuration not stated)	inactive
O=C1OC2(c3ccc(O)cc3Oc3cc(O)ccc32)c2ccc(N=C=S)cc21	inactive
C/C=C/C=C/C=O	inactive
CCN1CCN(C(=O)N[C@@H](C(=O)N[C@@H]2C(=O)N3[C@@H]2SC(C)(C)[C@H]3C(=O)O)c2ccccc2)C(=O)C1=O	inactive
CCCC(CCC)(C(=O)OCC)C(=O)OCC	inactive

====

# test system: 5-hydroxytryptamine receptor 2A (Homo sapiens)
# protocol summary: 5-hydroxytryptamine receptor 2A (HTR2A) small molecule antagonists, cell-based qHTS assay (AID 1963586); further: on the % scale 0 is the no-effect control and ±100 the full control effect; nearly all actives have a fitted effect of over 45% in size
# experimental context: HTR2A-CHO cells, DOI-induced calcium flux, fluorescence; series mostly up to 61.5 µM
Records with an inconclusive call do not appear. Calls of active or inactive are those of the source. The call rests on the fitted dose curve.
A collection of compounds and their measured activity, negative = inhibition
measured parameter: activity, negative = inhibition

compound	measured parameter	result
Cc1[nH]c(C)c(Cl)c(=O)c1Cl	activity, negative = inhibition	81.1% [at 12.7 µM] (inactive)
O=CO	activity, negative = inhibition	0.711% [at 5.62 µM] (inactive)
O=C(O)CN(CCN(CC(=O)O)CC(=O)O)CC(=O)O	activity, negative = inhibition	-0.852% [at 2.12 µM] (inactive)
N[C@@H](CCC(=O)N[C@@H](CS)C(=O)NCC(=O)O)C(=O)O	activity, negative = inhibition	-1.78% [at 12.7 µM] (inactive)
CN(C)C(=O)NC1(c2ccccc2)CCN(CCC[C@]2(c3ccc(Cl)c(Cl)c3)CCCN(C(=O)c3ccccc3)C2)CC1	activity, negative = inhibition	9.02% [at 12.7 µM] (inactive)
Nc1ccc(/C=C/c2ccc(N)cc2S(=O)(=O)O)c(S(=O)(=O)O)c1	activity, negative = inhibition	63.5% [at 0.233 µM] (inactive)
C1CCCCCCCCCCC1	activity, negative = inhibition	-15.5% [at 12.7 µM] (inactive)
CCC(Cl)CC(Cl)C(Cl)C(Cl)C(Cl)C(C)Cl (stereo not drawn)	activity, negative = inhibition	-18.7% [at 12.7 µM] (inactive)
CN(C)CCCN(C)C	activity, negative = inhibition	12.1% [at 5.62 µM] (inactive)
O=C(O)c1ccccc1Nc1cc(Cl)ccc1C(=O)O	activity, negative = inhibition	13.3% [at 12.7 µM] (inactive)
O=C(O)O	activity, negative = inhibition	11.9% [at 5.62 µM] (inactive)
C=C(C)C(=O)OCCCCCCCCCCCCCCCCCC	activity, negative = inhibition	-3.48% [at 12.7 µM] (inactive)
CC1=CC(=C(c2ccc(N)cc2)c2ccc(N)cc2)C=CC1=N	activity, negative = inhibition	14.5% [at 5.62 µM] (inactive)
C=CCCCCCCCCCCCCCC	activity, negative = inhibition	4.99% [at 12.7 µM] (inactive)
C[C@@H]1CN(c2c(F)c(F)c3c(=O)c(C(=O)O)cn(C4CC4)c3c2F)C[C@H](C)N1	activity, negative = inhibition	0.835% [at 12.7 µM] (inactive)
c1cc2ccc3ccc4ccc5cccc6c(c1)c2c3c4c56	activity, negative = inhibition	1.93% [at 2.12 µM] (inactive)
N[C@@H](Cc1ccc(O)cc1)C(=O)O	activity, negative = inhibition	17.7% [at 5.62 µM] (inactive)
CCN1/C(=C/C=C/c2sc3ccccc3[n+]2CC)Sc2ccccc21	activity, negative = inhibition	-18.6% [at 12.7 µM] (inactive)
